experimental details: ATG_TA_CIS: Attagene CIS-FACTORIAL HepG2 Assay for human TA Basal Promoter (AID 2282964)
condition parameters: HepG2 Attagene CIS-factorial TA basal promoter reporter; actives raise or lower the signal
Active and inactive are the calls of the source. How the source made its calls: active means hit-call score of the fitted dose curve at least 0.9, where 1 is the maximum; inactive means score below 0.9.
Classes used: 1 for active, -1 for inactive

| molecule | qualitative label |
| --- | --- |
| CC(C)(c1ccc(Oc2ccc(N)cc2)cc1)c1ccc(Oc2ccc(N)cc2)cc1 | -1 |
| O=C(F)C(F)(F)C(F)(F)C(F)(F)C(F)F | -1 |
| CCCCC(CC)C(=O)O (stereo unspecified) | -1 |
| Cc1ccccc1C(OCCN(C)C)c1ccccc1 (stereo unspecified) | -1 |
| COc1cccc(O)c1 | -1 |
| COC(=O)C(F)(F)C(F)(F)C(F)(F)C(F)(F)C(F)(F)F | -1 |
| CCOC(OCC)C(=O)c1ccccc1 | -1 |
| CCCCCCCCCCCCCCCC(=O)OC | -1 |
| CC(C)(C)c1ccc(O)c(O)c1 | -1 |
| FC(F)=C(F)C(F)(F)C(F)(F)C(F)(F)C(F)F | -1 |
| CC1CCC(C(=O)O)CC1 (stereo unspecified) | -1 |
| CC(O)COc1ccccc1 (stereo unspecified) | -1 |
| c1cc[nH]c1 | -1 |
| CCCC=O | -1 |
| Oc1cccc2c(O)cccc12 | -1 |
| C=CC(=O)OCCC(F)(F)C(F)(F)C(F)(F)C(F)(F)C(F)(F)C(F)(F)F | -1 |
| Cc1cc(C(=C2C=CC(=Nc3ccc(S(=O)(=O)O)cc3)C=C2)c2ccc(Nc3ccc(S(=O)(=O)O)cc3)cc2)cc(S(=O)(=O)O)c1N | -1 |
| O=CC(F)(F)C(F)(F)C(F)(F)C(F)F | -1 |
| O=C(OC(=O)C(F)(F)C(F)(F)F)C(F)(F)C(F)(F)F | -1 |
| CC(C)[C@@H]1CC[C@@H](C)C[C@H]1O | -1 |
| O=C(Nc1cccc([N+](=O)[O-])c1)c1cc2ccccc2cc1O | -1 |
| CCC(=O)C=Cc1ccc(OC)cc1 | -1 |
| O=C1Cc2ccccc2N1c1c(Cl)cccc1Cl | -1 |
| COC(O)c1ccccc1 (stereo unspecified) | -1 |
| CCCCCCCCCCCC(=O)O | -1 |
| Brc1cc(Br)c(Oc2c(Br)cc(Br)c(Br)c2Br)cc1Br | -1 |
| N=C(N)c1ccc(OCCCCCOc2ccc(C(=N)N)cc2)cc1 | 1 |
| CCCCCCCCCCCCCC[n+]1ccccc1 | 1 |
| FC(F)(F)C(F)(F)C(F)(F)Br | -1 |
| CCOC(C)=O | -1 |
| C=CC(=O)OCCN(CC)CC | -1 |
